- experimentDescription: physchem
Provide the reported pKa of each item.
One number for each entry.

Study these solved cases before continuing.
>  <compound>
NCC1CCC(C(=O)O)CC1 (configuration not stated)

>  <pKa>
10

$$$$
>  <compound>
c1ccc2c(c1)CCCC2C1=NCCN1 (configuration not stated) [TETRAHYDROZOLINE]

>  <pKa>
10.6

$$$$
>  <compound>
NCCc1ccc(Cl)cc1

>  <pKa>
10.1

$$$$
>  <compound>
CON=C(C(=O)N[C@@H]1C(=O)N2C(C(=O)O)=C(COC(C)=O)CS[C@H]12)c1csc(N)n1

>  <pKa>
2

$$$$
>  <compound>
NCCc1ccc(O)c(O)c1F

>  <pKa>
8

$$$$
>  <compound>
Nc1nc(-c2ccccc2)cc(=O)[nH]1

>  <pKa>
3.45

$$$$

Proceeding to the next compound to report its pKa.
Query: Supply measured pKa of c1ccc(CSc2nc3ccccc3[nH]2)cc1 in your reply.
Reply: 4.2

Hello, the source for this data is ChEMBL document CHEMBL3301361, in case you need it.
